Tested on: differentiated human THP-1 cells
Assay: stimulated release of TNF-α from differentiated human THP-1 cells (ELISA, dose-response)
Format: cell-based
Conditions: Homo sapiens, THP-1, table of functionalized derivatives 147-151, human THP-1 cells; read-out: EC50 (nM) (THP-1)
Procedure: A screening campaign was conducted with nearly 100,000 compounds [(a) Whitby et al., Acc. Chem. Res. 2012, 45:1698-1709; and (b) Boger et al., Angew. Chem. Int. Ed. 2003, 42:4138-4176], using a newly developed functional assay that measured the stimulated release of TNF-α from treated human THP-1 cells partially differentiated along the macrophage line [unpublished results of the inventors and co-workers]. […]
Result Type: EC50
I'd appreciate it if you wrote the number followed by its unit.

Which EC50 is listed for CC(C)(C)OC(=O)CCOCCOCCOCCNC(=O)COc1cc(C(=O)N2C[C@@H](C(=O)N[C@H]3C[C@@H]3c3ccccc3)[C@H](C(=O)N[C@H]3C[C@@H]3c3ccccc3)C2)ccc1C(=O)N1C[C@@H](C(=O)N[C@H]2C[C@@H]2c2ccccc2)[C@H](C(=O)N[C@H]2C[C@@H]2c2ccccc2)C1 [Compound 149] ?
20 nM

Now try CC(C)(C)OC(=O)COCCOCCOCC(=O)Nc1cc(C(=O)N2C[C@@H](C(=O)N[C@H]3C[C@@H]3c3ccccc3)[C@H](C(=O)N[C@H]3C[C@@H]3c3ccccc3)C2)ccc1C(=O)N1C[C@@H](C(=O)N[C@H]2C[C@@H]2c2ccccc2)[C@H](C(=O)N[C@H]2C[C@@H]2c2ccccc2)C1 [Compound 150] .
15 nM

Query CC(C)(C)OC(=O)COc1cc(C(=O)N2C[C@@H](C(=O)N[C@H]3C[C@@H]3c3ccccc3)[C@H](C(=O)N[C@H]3C[C@@H]3c3ccccc3)C2)ccc1C(=O)N1C[C@@H](C(=O)N[C@H]2CC2c2ccccc2)[C@H](C(=O)N[C@H]2C[C@@H]2c2ccccc2)C1 (stereo partly shown) [Compound 147] next
40 nM

Same again, this time with CC(C)(C)OC(=O)CCOCCOCCOCCOc1cc(C(=O)N2C[C@@H](C(=O)N[C@H]3C[C@@H]3c3ccccc3)[C@H](C(=O)N[C@H]3C[C@@H]3c3ccccc3)C2)ccc1C(=O)N1C[C@@H](C(=O)N[C@H]2C[C@@H]2c2ccccc2)[C@H](C(=O)N[C@H]2C[C@@H]2c2ccccc2)C1 [Compound 148]
190 nM
